biological target: hSSTR2 (Homo sapiens); construct: expressed in transfected cells; test: Binding assay, displacement of 3-[125I]iodotyrosyl11 Somatostatin-14; conditions: recombinant human receptor, cell membranes; 60 min at 25° C.; read-out: IC50 (nM) hSSTR2
Sequence (P30874 whole entry): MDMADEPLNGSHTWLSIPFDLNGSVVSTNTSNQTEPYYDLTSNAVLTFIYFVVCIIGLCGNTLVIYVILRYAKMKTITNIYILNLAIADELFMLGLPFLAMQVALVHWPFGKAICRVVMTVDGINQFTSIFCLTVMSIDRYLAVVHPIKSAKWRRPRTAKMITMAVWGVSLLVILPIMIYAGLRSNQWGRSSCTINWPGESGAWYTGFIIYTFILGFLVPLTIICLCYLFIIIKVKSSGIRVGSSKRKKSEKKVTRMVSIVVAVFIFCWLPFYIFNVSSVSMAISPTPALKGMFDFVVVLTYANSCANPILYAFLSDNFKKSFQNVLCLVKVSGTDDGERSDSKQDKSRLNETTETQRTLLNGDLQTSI
Reported values of IC50 for individual entries

{"columns": ["COMPOUND", "IC50 (nM)"],
 "data": [
  ["COc1cc(CC2NC(=O)[C@H](Cc3ccccc3)NC(=O)[C@@H]3C[C@@H](OC(=O)NCCN)CN3C(=O)[C@H](Cc3ccccc3)NC(=O)[C@H](Cc3ccc(OCc4ccccc4)cc3)NC(=O)[C@H](CCCCN)NC2=O)c(OC)c2ccccc12 (single isomer, unassigned) [Example 9]", 9.9],
  ["COc1cc(CC2NC(=O)[C@H](Cc3ccccc3)NC(=O)[C@@H]3C[C@@H](OC(=O)NCCN)CN3C(=O)[C@H](Cc3ccccc3)NC(=O)[C@H](Cc3ccc(OCc4ccccc4)cc3)NC(=O)[C@H](CCCCN)NC2=O)c(OC)c2ccccc12 (single isomer, unassigned) [Example 8]", 26.6],
  ["COc1ccc(OC)c(CCC2NC(=O)[C@H](Cc3ccccc3)NC(=O)[C@@H]3C[C@@H](OC(=O)NCCN)CN3C(=O)[C@H](Cc3ccccc3)NC(=O)[C@H](Cc3ccc(OCc4ccccc4)cc3)NC(=O)[C@H](CCCCN)NC2=O)c1 (single isomer, unassigned)", 25.8],
  ["COc1cc2cccc(OC)c2cc1CC1NC(=O)[C@H](Cc2ccccc2)NC(=O)[C@@H]2C[C@@H](OC(=O)NCCN)CN2C(=O)[C@H](Cc2ccccc2)NC(=O)[C@H](Cc2ccc(OCc3ccccc3)cc2)NC(=O)[C@H](CCCCN)NC1=O (single isomer, unassigned)", 9.3],
  ["CNCCNC(=O)O[C@@H]1C[C@H]2C(=O)N[C@@H](Cc3ccccc3)C(=O)NC(Cc3cc4c(OC)cccc4cc3OC)C(=O)N[C@@H](CCCCN)C(=O)N[C@@H](Cc3ccc(OCc4ccccc4)cc3)C(=O)N[C@@H](Cc3ccccc3)C(=O)N2C1 (single isomer, unassigned)", 9.2]
]}
